Data credit: PubChem BioAssay AID651699

Biological target: NEDD8-conjugating enzyme Ubc12 (Homo sapiens) + NEDD8-activating enzyme E1 regulatory subunit (Homo sapiens) (UniProt P61081+Q13564)
Sequence (P61081 whole entry, looked up): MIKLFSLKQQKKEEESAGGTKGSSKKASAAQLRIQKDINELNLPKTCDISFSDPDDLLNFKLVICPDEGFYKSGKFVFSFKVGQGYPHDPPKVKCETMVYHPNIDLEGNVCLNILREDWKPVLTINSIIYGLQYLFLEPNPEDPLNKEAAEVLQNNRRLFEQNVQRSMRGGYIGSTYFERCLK
Sequence (Q13564 whole entry, looked up): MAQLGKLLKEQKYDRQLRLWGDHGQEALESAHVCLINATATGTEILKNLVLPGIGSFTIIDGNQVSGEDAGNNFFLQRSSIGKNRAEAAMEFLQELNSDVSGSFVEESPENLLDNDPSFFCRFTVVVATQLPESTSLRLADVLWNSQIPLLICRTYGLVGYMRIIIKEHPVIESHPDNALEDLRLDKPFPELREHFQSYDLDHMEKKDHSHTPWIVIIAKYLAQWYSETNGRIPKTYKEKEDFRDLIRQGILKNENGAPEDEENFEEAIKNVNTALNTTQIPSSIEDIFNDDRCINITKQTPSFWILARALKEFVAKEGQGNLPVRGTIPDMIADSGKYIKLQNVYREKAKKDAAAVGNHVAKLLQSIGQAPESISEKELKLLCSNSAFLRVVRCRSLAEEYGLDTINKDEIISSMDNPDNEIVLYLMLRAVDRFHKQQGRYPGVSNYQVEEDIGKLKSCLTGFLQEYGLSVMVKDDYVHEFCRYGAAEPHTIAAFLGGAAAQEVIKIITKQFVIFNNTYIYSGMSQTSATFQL
Test: inhibitors of cullin neddylation, primary screen, biochemical, TR-FRET, uHTS, NAE and Ubc12 (AID 651699)
Settings: at 25 µM
About 2,100 (0.58%) of roughly 360,000 compounds were called active. Rule as the data show it: active = inhibition above about 36%; inactive = the rest. This is one part of a sample in which actives are shown more often than they occur.
Outcomes: 1 = active, 0 = inactive

compound: COc1ccc(Cl)cc1NC(=O)CN(C)C(=O)c1ccc2n[nH]nc2c1
assigned label: 0
//
compound: C=CCn1c(COc2cccc3cccnc23)nnc1SCC(=O)OC
assigned label: 1
//
compound: Cc1cccn2c(=O)c3cc(C(=O)NCCN4CCOCC4)c(=N)n(Cc4cccnc4)c3nc12
assigned label: 1
//
compound: Cc1cc(=O)[nH]c(Nc2cccc(Br)c2)n1
assigned label: 0
//
compound: O=C1c2ccccc2S(=O)(=O)c2cc(N3CCN(c4ccccn4)CC3)ccc21
assigned label: 0
//
compound: O=C1N[C@H](Cc2c[nH]c3ccccc23)COC(=O)[C@H](Cc2ccc(F)cc2)C/C=C\C[C@H]1CC(=O)N(CCO)Cc1ccccc1
assigned label: 0
//
compound: NNC(=O)c1oc2nc(-c3ccccc3)cc(-c3ccco3)c2c1N
assigned label: 1
//
compound: CCC(CC)C(=O)N1CC(=O)Nc2ccc(Br)cc2C1c1ccccc1 (stereo not given)
assigned label: 0
//
compound: COc1ccc(Nc2ncc(C(=O)N3CCN(c4ccccc4OC)CC3)c3ccccc23)cc1
assigned label: 1
//
compound: Cc1cc(N)n2nc(-c3ccc(C(C)(C)C)cc3)cc2n1
assigned label: 1
//
compound: Cc1nn(-c2ccccc2)c(NC(=O)c2cccs2)c(-c2ccc(Cl)cc2)c1=O
assigned label: 0
//
compound: Cc1ccc(NC(=O)CC2C(=O)N(Cc3ccccc3)C(=S)N2NC(=O)c2cccc(F)c2)c(C)c1 (stereo not given)
assigned label: 0
//
compound: Cc1ccc(C)c(NC(=O)NNC(=O)c2ccc3ccccc3c2O)c1
assigned label: 1
//
compound: COc1ccccc1N1CCN(C(=O)c2ccc(NC3=NC4CS(=O)(=O)CC4S3)cc2)CC1 (stereo not given)
assigned label: 0
//
compound: CNC(=S)NNC(=O)c1oc2nc(-c3ccccc3)cc(-c3ccco3)c2c1N
assigned label: 0
//
compound: COCOCCn1cc(CN2CCS(=O)(=O)N(Cc3ccc(-c4ccc(OC)cc4)cc3)C(CC(C)C)C2=O)nn1 (stereo not given)
assigned label: 0
//
compound: O=C1OC(Cc2ccccc2)C(c2ccccc2)C1=O (stereo not given)
assigned label: 0
//
compound: CN(Cc1nc2ccccc2c(=O)[nH]1)Cc1cc(=O)oc2ccc3ccccc3c12
assigned label: 0
//
compound: COC(=O)c1ccc2nc(-c3ccc(OC)c(OC)c3)c(Cc3ccccc3)n2c1
assigned label: 1
//
compound: CC(=O)Nc1nc(C)c(-c2csc(Nc3ccc(S(N)(=O)=O)cc3)n2)s1
assigned label: 1
//
compound: CCCCCCC(=O)Nc1nc(C)c(-c2csc(Nc3cccc(OC)c3)n2)s1
assigned label: 0
//
compound: O=C(NC1CC1)C(Cc1ccccc1)NS(=O)(=O)c1ccccc1F (stereo not given)
assigned label: 0
//
compound: COc1ccc(-n2nc(C(=O)NCC(=O)N3CCN(c4ccccc4OC)CC3)c3ccccc3c2=O)c(OC)c1
assigned label: 0
//
compound: COc1cccc(/C=C/C(=O)OCC(=O)N2CCCc3ccccc32)c1
assigned label: 1
//
compound: O=C(c1cc2ccccc2s1)N1CCN(c2ccccn2)CC1
assigned label: 0
//
compound: CC(C)c1ccc2oc(=O)cc(CN3CCN(Cc4ccccc4)CC3)c2c1
assigned label: 0
//
compound: O=C(NCc1cccc(Cl)c1)C1CCN(c2nnc(N3CCCC3=O)s2)CC1
assigned label: 0
//
compound: COC(=O)C1(C(=O)OC)C[C@H](c2ccccc2)N(Cc2ccccc2OC)[C@@H]1c1ccccc1
assigned label: 0
//
compound: COc1cccc(/C=C/C(=O)OCC(=O)N2CCN(c3ccccc3)CC2)c1
assigned label: 0
//
compound: CCN1C(=O)/C(=C\N2CCOCC2)SC1=S
assigned label: 0
